system-under-test: Calmodulin-1 (Homo sapiens)
test-protocol: calcium-bound CALM1 binders on microarrays, profiling panel, artefact control for SMM control-protein annotation, biochemical, small-molecule microarray, Cy5-labelled CALM1, plus calcium (AID 1112);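 also: score merges spot fluorescence with signal to noise from triplicate slides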
test-parameters: Cy5-CALM1 binding fluorescence, higher = more signal
Please use criterion met whenever composite z-score is not below 0.05, and criterion not met whenever it is.

| compound | system-under-test | class |
| --- | --- | --- |
| CC(=O)NCCCC[C@@H]1NC(=O)[C@@H]2C[C@H](C(=O)NCCCCN(C)C)[C@H](c3cccc(OCCO)c3)N2C1=O | Calmodulin-1 (Homo sapiens) | criterion met |
| CCOC(=O)[C@H]1CC=C2CC1C(=O)N1CCC[C@@H]1[C@@H]2O[Si](C)(C)C(C)(C)C (stereo partly drawn) | Calmodulin-1 (Homo sapiens) | criterion not met |
| C=CCOC(=O)[C@H]1[C@@H]2C(=O)O[C@@H](c3ccccc3)[C@@H](c3ccccc3)N2[C@@H](c2ccc(OCCOC(=O)[C@H]3C[C@H]4C(=O)N5CCC[C@H]5C(=O)N4[C@H]3c3ccc(O)cc3)cc2)[C@]12C(=O)Nc1ccc(I)cc12 | Calmodulin-1 (Homo sapiens) | criterion met |

QUERY: Could you verify whether the entry C=CCC(OC(C)=O)[C@@H]1[C@@H](N(Cc2ccc(-c3cccc(C(F)(F)F)c3)o2)C(=O)Cc2ccc(F)cc2)c2cc(OCCCO)ccc2N1C(=O)Cc1ccc(OC)cc1 (stereo partly drawn) shows composite z-score of no less than 0.05?
RESULT: criterion not met

QUERY: Could you verify whether the entry CN1C(=O)C2C=CC(C(O)C3CCCCC3)N(Nc3ccc([N+](=O)[O-])cc3[N+](=O)[O-])C2C1=O (stereo not drawn) shows composite z-score of no less than 0.05?
RESULT: criterion met

QUERY: Could you verify whether the entry COc1ccc(CCN2C(=O)[C@@]3(c4ccc([N+](=O)[O-])cc4)CC(=O)N(C4CCCCC4)[C@@H]3c3ccc(CO)cc32)cc1 shows composite z-score of no less than 0.05?
RESULT: criterion not met
